target under test: T1, PACAP38 (Pituitary Adenylate Cyclase-Activating Polypeptide, 38 amino acids) (human, not fully specified; the C-terminal lysine is amidated)
T1 construct: In the HTRF and PC-12 cell assays the peptide was N-terminally or C-terminally biotinylated; unlabelled in SPR; also called human PACAP38; huPACAP (1-38)
T1 peptide: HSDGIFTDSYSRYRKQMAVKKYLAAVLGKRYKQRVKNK
procedure summary: SPR (ProteOn XPR36), antibody amine-coupled, peptide analyte, 1:1 Langmuir fit
Each entry below lists one item and its recorded Kd value.

Example binders with recorded Kd:
>>> endpoint_value("Ab21 (antibody, human IgG1, kappa, N297A, V domains shown, Full-length anti-PACAP antibody; rabbit/human chimeric) VH: QSVEESGGRLVTPGTPLTLTCTVSGIDLSSYYMTWVRQAPGKGLEWVGFIDAGGSAYYATWAKGRFTISKASTTVDLKITSPTTEDTATYFCARDLDLWGPGTLVTVSS VL: AAVLTQTPSPVSAAVGGTVSISCKSSESVYGDYLAWFQQKPGQPPKQLIYDASTLASGVPSRFKGSGSGTQFTLTISGVQCDDAATYYCAGGYVSAGVAFGGGTEVVVKR")
"≤ 0.027 nM"
>>> endpoint_value("Ab20 (antibody, human IgG1, kappa, N297A, V domains shown, Full-length anti-PACAP antibody; rabbit/human chimeric) VH: QSVEESGGRLVTPGTPLTLTCTVSGIDLSSYYMSWVRQAPGKGLEWIGFIDTDGSAYYATWAKGRFTISKTSTTVDLKITSPTTEDTATYFCARDLDLWGPGTLVTVSS VL: AAVLTQTPSPVSAAVGGTVSISCQSSESVYSNYLAWFQQKPGQPPKFLIYEASKLASGVPSRFKGSGSGTQFTLTISDVQCDDAGTYYCAGGYSSEGVAFGGGTEVVVKR")
"0.21 nM"
>>> endpoint_value("Ab1.H (antibody, V domains shown) VH: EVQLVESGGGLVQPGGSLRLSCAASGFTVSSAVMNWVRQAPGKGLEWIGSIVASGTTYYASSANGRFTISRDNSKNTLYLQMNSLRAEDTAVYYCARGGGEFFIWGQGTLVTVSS VL: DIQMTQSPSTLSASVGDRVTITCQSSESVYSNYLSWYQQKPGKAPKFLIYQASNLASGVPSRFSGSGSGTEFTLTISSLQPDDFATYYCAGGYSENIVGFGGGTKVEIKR")
"0.021 nM"

Okay, now this binder:
## Input Entry under review: Ab10 (antibody, human IgG1, kappa, N297A, V domains shown, Full-length anti-PACAP antibody; rabbit variable regions cloned onto human constant regions (rabbit/human chimeric), expressed in HEK-293) VH: QSVEESGGRLVTPGTPLTLTCTVSGIDLNSYYMTWVRQAPGKGLEWIGFIDAGGDAYYASWAKGRFTISKTSTTVDLKITSPTTEDTATYFCARDLDLWGQGTLVTVSS VL: AAVLTQTPSPVSAAVGGTVTINCQSSESVYGNYLAWFQQKPGQPPKLLIYEASKLESGVPSRFSGSGSGTQFTLTISDLQCDDAATYYCAGGDISEGVAFGGGTEVVVKR . Reported Kd?
## Output 0.075 nM

Values from patent US20250009876A1
